I'd be grateful if you could share measured IC50 for these entries.

Record for Cc1cc(-c2cn(CCN3CCC3)c([C@H]3CCN(c4ncnc(N)c4C(C)C)C[C@H]3F)n2)ccc1F (single isomer, unassigned) under target or system His-AKT (Full Length) (Homo sapiens (Human)): IC50 reported as > 10 nM

Record for Nc1ncnc(N2CC[C@@H](c3nc(-c4ccc(F)c(C(F)(F)F)c4)cn3CCN3CCC3)[C@@H](F)C2)c1Cl (racemic) under target or system His-AKT (Full Length) (Homo sapiens (Human)): IC50 reported as < 1 nM

Record for NC(=O)c1c(N)ncnc1N1CC[C@@H](c2nc(-c3ccc(F)c(C(F)(F)F)c3)cn2CCN2CCC2)[C@H](F)C1 (racemic) under target or system His-AKT (Full Length) (Homo sapiens (Human)): IC50 reported as > 10 nM

Record for NC(=O)c1c(N)ncnc1N1CC[C@@H](c2nc(-c3ccc(F)c(C(F)(F)F)c3)cn2CCN2CCC2)[C@@H](F)C1 (racemic) under target or system His-AKT (Full Length) (Homo sapiens (Human)): IC50 reported as < 1 nM

Record for Cc1cc(-c2cn(CCN3CCC3)c(C3(O)CCN(c4ncnc(N)c4Cl)CC3)n2)ccc1F under target or system His-AKT (Full Length) (Homo sapiens (Human)): IC50 reported as 1 to 10 nM

Record for Cc1cc(-c2cn(CCN3CCC3)c([C@H]3CCN(c4ncnc(N)c4C(N)=O)C[C@H]3F)n2)ccc1F (single isomer, unassigned) under target or system His-AKT (Full Length) (Homo sapiens (Human)): IC50 reported as > 10 nM

Record for CC(C)c1c(N)ncnc1N1CC[C@@H](c2nc(-c3ccc(F)c(C(F)(F)F)c3)cn2CCN(C)C)[C@@H](F)C1 (single isomer, unassigned) [Compound 32] under target or system His-AKT (Full Length) (Homo sapiens (Human)): IC50 reported as 1 to 10 nM

Record for CCc1c(N)ncnc1N1CCC(O)(c2nc(-c3ccc(F)c(C)c3)cn2CCN2CCC2)CC1 under target or system His-AKT (Full Length) (Homo sapiens (Human)): IC50 reported as 1 to 10 nM

Record for N#Cc1c(N)ncnc1N1CC[C@H](c2nc(-c3ccc(F)c(C(F)(F)F)c3)cn2CCN2CCC2)[C@@H](F)C1 (racemic) under target or system His-AKT (Full Length) (Homo sapiens (Human)): IC50 reported as > 10 nM

Record for CC(C)c1c(N)ncnc1N1CC[C@@H](c2nc(-c3ccc(F)c(C(F)(F)F)c3)cn2CCN(C)C)[C@@H](F)C1 (racemic) [Compound 17] under target or system His-AKT (Full Length) (Homo sapiens (Human)): IC50 reported as > 10 nM

Record for CC(C)c1c(N)ncnc1N1CC[C@@H](c2nc(-c3ccc(F)c(C(F)(F)F)c3)c[nH]2)[C@@H](F)C1 (racemic) under target or system His-AKT (Full Length) (Homo sapiens (Human)): IC50 reported as > 10 nM

Record for Cc1cc(-c2cn(CCNC(C)C)c([C@@H]3CCN(c4ncnc(N)c4C(C)C)C[C@@H]3F)n2)ccc1F (racemic) under target or system His-AKT (Full Length) (Homo sapiens (Human)): IC50 reported as 1 to 10 nM

Record for C[C@H]1CN(c2ncnc(N)c2C(N)=O)CC[C@H]1c1nc(-c2ccc(F)c(C(F)(F)F)c2)cn1CCN1CCC1 (racemic) under target or system His-AKT (Full Length) (Homo sapiens (Human)): IC50 reported as > 10 nM

Record for CN(C)CCn1cc(-c2ccc(F)c(C(F)(F)F)c2)nc1[C@H]1CCN(c2ncnc(N)c2Cl)C[C@H]1F (single isomer, unassigned) under target or system His-AKT (Full Length) (Homo sapiens (Human)): IC50 reported as > 10 nM

Record for Cc1cc(-c2cn(CCN3CCC3)c([C@@H]3CCN(c4ncnc(N)c4C(C)C)C[C@@H]3F)n2)ccc1F (racemic) under target or system His-AKT (Full Length) (Homo sapiens (Human)): IC50 reported as 1 to 10 nM

Record for CC(C)c1c(N)ncnc1N1CC[C@H](c2nc(-c3ccc(F)c(C(F)(F)F)c3)cn2CCN(C)C)[C@H](F)C1 (single isomer, unassigned) under target or system His-AKT (Full Length) (Homo sapiens (Human)): IC50 reported as > 10 nM

Record for Nc1ncnc(N2CC[C@@H](c3nc(-c4ccc(F)c(C(F)(F)F)c4)cn3CCN3CCC3)[C@H](F)C2)c1Cl (racemic) under target or system His-AKT (Full Length) (Homo sapiens (Human)): IC50 reported as 1 to 10 nM

Record for Cc1cc(-c2cn(CCN3CCC3)c(C3CCN(c4ncnc(N)c4C(N)=O)CC3(F)F)n2)ccc1F (stereo not drawn) under target or system His-AKT (Full Length) (Homo sapiens (Human)): IC50 reported as > 10 nM

Record for C[C@H]1CN(c2ncnc(N)c2C#N)CC[C@H]1c1nc(-c2ccc(F)c(C(F)(F)F)c2)cn1CCN1CCC1 (racemic) under target or system His-AKT (Full Length) (Homo sapiens (Human)): IC50 reported as > 10 nM

Record for CN(C)CCn1cc(-c2ccc(F)c(C(F)(F)F)c2)nc1[C@@H]1CCN(c2ncnc(N)c2C#N)C[C@@H]1F (racemic) under target or system His-AKT (Full Length) (Homo sapiens (Human)): IC50 reported as 1 to 10 nM

Record for CCOc1c(N)ncnc1N1CC[C@@H](c2nc(-c3ccc(F)c(C(F)(F)F)c3)cn2CCN2CCC2)[C@@H](F)C1 (racemic) under target or system His-AKT (Full Length) (Homo sapiens (Human)): IC50 reported as 1 to 10 nM

Record for CNCCn1cc(-c2ccc(F)c(C)c2)nc1[C@@H]1CCN(c2ncnc(N)c2C(C)C)C[C@@H]1F (racemic) under target or system His-AKT (Full Length) (Homo sapiens (Human)): IC50 reported as 1 to 10 nM

Record for CCOc1c(N)ncnc1N1CC[C@H](c2nc(-c3ccc(F)c(C(F)(F)F)c3)cn2CCN2CCC2)[C@H](F)C1 (single isomer, unassigned) under target or system His-AKT (Full Length) (Homo sapiens (Human)): IC50 reported as 1 to 10 nM

Record for Cc1cc(-c2cn(CCN(C)C)c([C@@H]3CCN(c4ncnc(N)c4C#N)C[C@@H]3F)n2)ccc1F (racemic) under target or system His-AKT (Full Length) (Homo sapiens (Human)): IC50 reported as 1 to 10 nM

Record for Cc1cc(-c2cn(CCN3CCC3)c([C@@H]3CCN(c4ncnc(N)c4C#N)C[C@@H]3F)n2)ccc1F (racemic) under target or system His-AKT (Full Length) (Homo sapiens (Human)): IC50 reported as 1 to 10 nM

Record for Cc1cc(-c2cn(CC3CNC3)c([C@@H]3CCN(c4ncnc(N)c4C(C)C)C[C@@H]3F)n2)ccc1F (racemic) under target or system His-AKT (Full Length) (Homo sapiens (Human)): IC50 reported as 1 to 10 nM

Record for Cc1cc(-c2cn(CCN3CCC3)c([C@@H]3CCN(c4ncnc(N)c4C(N)=O)C[C@@H]3F)n2)ccc1F (relative stereo) under target or system His-AKT (Full Length) (Homo sapiens (Human)): IC50 reported as 1 to 10 nM

---

I'd be grateful if you could share measured IC50 for these entries.
Biological target: P70S6K (T412E mutant) (Homo sapiens (Human), UniProt P23443, T412E)
Sequence (P23443 whole entry T412E): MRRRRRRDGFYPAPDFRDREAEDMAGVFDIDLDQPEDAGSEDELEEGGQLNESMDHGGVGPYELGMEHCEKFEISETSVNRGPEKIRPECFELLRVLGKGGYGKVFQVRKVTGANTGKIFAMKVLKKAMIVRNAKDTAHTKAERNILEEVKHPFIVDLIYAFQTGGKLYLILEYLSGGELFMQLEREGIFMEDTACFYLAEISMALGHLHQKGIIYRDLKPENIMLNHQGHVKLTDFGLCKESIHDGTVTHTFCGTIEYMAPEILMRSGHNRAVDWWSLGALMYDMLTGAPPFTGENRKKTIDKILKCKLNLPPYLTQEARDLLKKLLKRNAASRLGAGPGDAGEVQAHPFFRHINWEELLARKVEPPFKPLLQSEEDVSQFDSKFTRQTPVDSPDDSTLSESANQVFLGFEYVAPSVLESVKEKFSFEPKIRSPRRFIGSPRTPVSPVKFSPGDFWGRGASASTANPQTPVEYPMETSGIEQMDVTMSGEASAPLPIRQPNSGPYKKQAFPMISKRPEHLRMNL
Assay: P70S6K enzyme assay
Conditions: 24 μM ATP

The compound listed as CNCCn1cc(-c2ccc(F)c(C)c2)nc1[C@@H]1CCN(c2ncnc(N)c2C(C)C)C[C@@H]1F (racemic) shows IC50 equal to 1 to 10 nM

The compound listed as CN(C)CCn1cc(-c2ccc(F)c(C(F)(F)F)c2)nc1[C@H]1CCN(c2ncnc(N)c2C(N)=O)C[C@H]1F (single isomer, unassigned) shows IC50 equal to 1 to 10 nM

The compound listed as CCc1c(N)ncnc1N1CCC(O)(c2nc(-c3ccc(F)c(C)c3)cn2CCN2CCC2)CC1 shows IC50 equal to 1 to 10 nM

---

I'd be grateful if you could share measured pIC50 for these entries.
Biological target: P70S6K (T412E mutant) (Homo sapiens (Human), UniProt P23443, T412E)
Assay: P70S6K enzyme assay
Details: 24 μM ATP
pIC50: −log10 of the molar value.

The compound listed as Nc1ncnc(N2CC[C@@H](c3nc(-c4ccc(F)c(C(F)(F)F)c4)cn3CCN3CCC3)[C@@H](F)C2)c1Cl (racemic) shows pIC50 equal to > 9.00

The compound listed as NC(=O)c1c(N)ncnc1N1CC[C@H](c2nc(-c3ccc(F)c(C(F)(F)F)c3)cn2CCN2CCC2)[C@H](F)C1 (single isomer, unassigned) shows pIC50 equal to 8.00 to 9.00

The compound listed as Cc1cc(-c2cn(CCN3CCC3)c(C3CCN(c4ncnc(N)c4C#N)CC3(F)F)n2)ccc1F (stereo not drawn) shows pIC50 equal to 8.00 to 9.00

The compound listed as C[C@H]1CN(c2ncnc(N)c2C(N)=O)CC[C@H]1c1nc(-c2ccc(F)c(C(F)(F)F)c2)cn1CCN1CCC1 (racemic) shows pIC50 equal to < 8.00

The compound listed as C[C@H]1CN(c2ncnc(N)c2C#N)CC[C@H]1c1nc(-c2ccc(F)c(C(F)(F)F)c2)cn1CCN1CCC1 (racemic) shows pIC50 equal to 8.00 to 9.00

The compound listed as Cc1cc(-c2cn(CCN(C)C)c([C@@H]3CCN(c4ncnc(N)c4C#N)C[C@@H]3F)n2)ccc1F (racemic) shows pIC50 equal to 8.00 to 9.00
